# Assayed Target: hOGA (Homo sapiens, UniProt O60502)
# Construct: endogenous in cells; host or cells: HEK293 cells inducible for P301L mutant human Tau (isoform 2N4R)
# Procedure Details: OGA cellular assay (ICC detection of O-GlcNAcylated proteins in HEK293 cells inducible for P301L mutant human Tau)
# Format: cell-based
# Parameters: dose or concentration left out as unconfirmed
# Conditions Used: HEK293, read-out: Cellular Emax (%)
Checkbox rule: Emax lower than 60% = 1; Emax not lower than 60% = -1.

# Structure Smiles, Class Label
data = [
    ("Cc1cc(C(F)(F)F)cc(C)c1Nc1nccc2c1ncn2-c1ncc(F)cn1", 1),
    ("CCc1cc(C(F)(F)F)cc(C)c1Nc1nccc2c1ncn2CC(=O)N(C)C", -1),
    ("Cc1cc2c(ncn2CC(=O)N(C)C)c(Nc2c(C)cc(C(F)(F)F)cc2C)n1", 1),
    ("Cc1nccc(C(F)F)c1Nc1nccc2c1ncn2CC(=O)N(C)C", 1),
    ("Cc1cc(C(F)(F)F)cc(C)c1Nc1nccc2c1ncn2CCC(=O)N(C)C", 1),
]

Qu. Hello, is Emax of the following molecule strictly smaller than 60%? "Cc1cc(C(F)(F)F)cc(C)c1Nc1ncc(Cl)c2c1ncn2CC(=O)N(C)C"
Ans. 1

----------
Measured Parameter: melting point (°C)
Kindly provide the numeric value in °C only, without the unit symbol.

Solved entries (count: 4):
# Structure Smiles, Recorded Number
rows = [
    ("Cc1cc(C(F)(F)F)cc(C)c1Nc1nccc2c1ncn2C(C)(C)C(=O)N(C)C", 260.1),
    ("Cc1cc(C(F)(F)F)cc(F)c1Nc1nccc2c1ncn2CC(=O)N(C)CC(F)(F)F", 238.3),
    ("Cc1ccnc(C(C)C)c1Nc1nccc2c1ncn2CC(=O)N(C)C", 223.3),
    ("Cc1ccc(-n2nc(C)c(Nc3nccc4c3ncn4CC(=O)N(C)C)c2C)cc1C", 144.7),
]

Could you now look at the following molecule, please?
Qu. Using the record for "[2H]C([2H])([2H])N(C)C(=O)Cn1cnc2c(Nc3c(C)cc(C(F)(F)F)cc3C)nccc21" , report its melting point.
Ans. 212.2

----------
Documented Emax across a set of compounds
# Assayed Target: recombinant human Meningioma Expressed Antigen 5 (MGEA5), also referred to as O-GlcNAcase (OGA) (Homo sapiens, UniProt O60502)
# Construct: Full length OGA enzyme was purchased at OriGene (cat #TP322411); purchased OriGene TP322411
# Procedure Details: OGA biochemical assay (inhibition of FM-GlcNAc hydrolysis, fluorescence)
# Conditions Used: read-out: Enzymatic Emax (%)
# Procedure: The hydrolysis FM-GlcNAc (Marker Gene technologies, cat #M1485) results in the formation of β-D-N-glucosamineacetate and fluorescein. The fluorescence of the latter can be measured at excitation wavelength 485 nm and emission wavelength 538 nm. An increase in enzyme activity results in an increase in fluorescence signal. Full length OGA enzyme was purchased at OriGene (cat #TP322411). The enzyme was stored in 25 mM Tris.HCl, pH 7.3, 100 mM glycine, 10% glycerol at −20° C. […]
Report the figure in % without appending any unit label.

Known Emax results, listed for orientation:
# Compound, Recorded Number
data = [
    ("Cc1nn(-c2ccccc2)c(C)c1Nc1nccc2c1ncn2CC(=O)N(C)C [Compound 41]", 95),
    ("Cc1cc(C)cc(-n2nc(C)c(Nc3nccc4c3ncn4CC(=O)N(C)C)c2C)c1 [Compound 43]", 99),
    ("CN(C)C(=O)Cn1cnc2c(Nc3ccc(F)cc3C(F)(F)F)nccc21 [Compound 29]", 100),
    ("Cc1cc(C(F)(F)F)cc(C)c1Nc1nccc2c1ncn2CC(N)=O [Compound 5]", 91),
]

// moving on: another record for Emax
Qu. // query Emax value for entry Cc1ccnc(C(C)C)c1Nc1nccc2c1cnn2CC(=O)N(C)C [Compound 65]
Ans. 97
